- Test system: NCI-H522 lung
- method-notes: NCI-60 one-dose screen, 48 h (100 = growth as untreated, 0 = no growth, -100 = all killed)
- assay-context: 10 µM unless noted
About 83,000 compounds went through this panel and 20% of them were active in at least one assay; those are over-represented in the sample as a whole.
Recorded measurements of growth, one per entry

molecule | unit-descriptor | growth
Cc1[nH]c(-c2nc3ccccc3[nH]2)c(C)c1C(=O)N1CCc2sccc2C1 | % | 77.1
O=C1C=CC(=Nc2cc(Br)c(O)c(Br)c2)C=C1 | % | -14.6
Cc1nc2ccc(C(=O)NCc3cc(C(=O)O)c(C)o3)cc2nc1C | % | 92.2
Cn1ccnc1C(=O)/C=C/c1ccc(C(=O)Nc2ccc(S(F)(F)(F)(F)F)cc2)cc1 | % | 42.9
COc1ccc(NC(=O)c2cccc(-c3cc(=O)c4c(O)c(OC)c(OC)cc4o3)c2)cc1 | % | 79.4
CCCCCOC(=O)c1cccc(NC(=O)CN(CC)CC)c1 | % | 62
COc1cc(NC(=O)c2cc(O)c(CC=C(C)C)c(O)c2)cc2c1O[C@]1(C)CC[C@@H](O)C(C)(C)[C@H]1C2 | % | 8.19
N#C/C(=C\c1ccc2c(c1)OCO2)n1nnc2ccccc21 | % | 14
CN(C)S(=O)(=O)n1cnc([C@@H]2[C@@H]3C(=O)OC[C@@H]3C[C@]23N=CN(Cc2ccccc2)C3=O)c1 | % | 102
COc1cc(CNC(=O)/C=C/C=C/c2ccc3c(c2)OCO3)ccc1OCc1cn(-c2ccc(Cl)c(Cl)c2)nn1 | % | 5.67
COc1ccc2cc(-c3ccc(C(=O)NN)c(C)n3)ccc2c1 | % | 69.8
CSc1nc(N)c(CNC(C)c2ccccc2)c(=O)n1C (centres undefined) | % | 94.3
COc1ccccc1C(=O)NC(=S)Nc1ccc(-c2nc3ccccc3[nH]2)cc1 | % | 91.4
C[C@@H]1CC[C@@H]2[C@@H]1[C@H](OC(=O)/C=C/c1ccccc1)[C@]1(CCCOCCOCCOCCOC(=O)CCCC[C@@H]3SC[C@@H]4NC(=O)N[C@@H]43)C[C@@H](OC(=O)CO)[C@@]2(C)O1 | % | 85
Cc1ccc2c(n1)C(=O)C(Oc1ccc(F)cc1)=CC2=O | % | -43.9
C=C1C(=O)O[C@H]2[C@H]1CC/C(COC(=O)/C=C\C(=O)NCc1ccc(Cn3c(=O)sn(-c4ccc(OC)cc4)c3=O)cc1)=C\CC[C@@]1(C)O[C@@H]21 | % | -45.2
Clc1ccc(/C=C/c2nc(Nc3ccc(Cl)cc3)c3ccccc3n2)cc1 | % | 90.8
CCNCCNc1cc(-c2ccc(Cl)cc2)c(C#N)c2nc3ccccc3n12 | % | -41.7
Cc1c2c(cn1Cc1ccccc1)CCc1cn[nH]c1-2 | % | 97.5

* * *

- Tested on: HOP-92 NSCLC
- method-notes: NCI-60 one-dose screen, 48 h (100 = growth as untreated, 0 = no growth, -100 = all killed)
- assay-context: 10 µM unless noted
The panel holds about 83,000 compounds, 20% with a hit somewhere; the sample as a whole holds those more often.
Cut-off 70% on growth: below means t, at or above means f.

mol | class-assignment
Clc1ccc2[nH]c3c(NCCCN4CCOCC4)ncnc3c2c1 | t
O=C1/C(=C/c2ccccc2[N+](=O)[O-])COc2ccc(O)c(O)c21 | t
COc1ccccc1NC(=O)Nc1ccc(-c2nc3ccccc3o2)cc1 | f
Cc1cc(N(CCCNc2ccnc3cc(Cl)ccc23)Cc2ccccn2)nc(N2CCOCC2)n1 | t

* * *

- Tested on: MOLT-4 leukemia
- method-notes: NCI-60 one-dose screen, 48 h (100 = growth as untreated, 0 = no growth, -100 = all killed)
- assay-context: 10 µM unless noted
Compounds without any hit were thinned out: in the full panel of roughly 83,000, 20% have a hit.
measurement-kind: growth (%)

compound | unit-descriptor | result-number
COc1ccc(-c2nc3sc4c(c3c(=O)[nH]2)CCCC4)c2ccccc12 | % | 14.2
COC(=O)CNC(=O)C(=O)c1c(O)c(O)c(C(C)C)c2cc(C)c(-c3c(C)cc4c(C(C)C)c(O)c(O)c(C(=O)C(=O)NCC(=O)OC)c4c3O)c(O)c12 | % | 15.7
CCn1c(Sc2nnc(Nc3ccccc3)s2)nc2c1c(=O)n(C)c(=O)n2C | % | 110
CCOC(=O)c1c2c(c(C)n1C)-c1nn(Cc3ccc(OC)cc3)cc1CC2 | % | 69.4
CCCCN1CCN(c2ccc3nc(-c4ccc5nc(-c6cc(OC)c(OC)c(OC)c6)[nH]c5c4)[nH]c3c2)CC1 | % | 47
C[C@@H]1C(=O)N(C[C@H](Cc2ccccc2)NC(=O)OCc2ccccc2)[C@]1(Cc1ccccc1)C(=O)OC(C)(C)C | % | 34
CCCCN(Cc1ccc(C(=O)NO)cc1)C(=O)Nc1ccc(OCCCCCCCCCn2cc(CCCCC(=O)N[C@H](C(=O)N3C[C@H](O)C[C@H]3C(=O)NCc3ccc(-c4scnc4C)cc3)C(C)(C)C)nn2)cc1 | % | 14.5
CS(=O)(=O)c1ccc(N/N=C/c2c(-c3ccc(S(C)(=O)=O)cc3)[nH]c3ccc(F)cc23)cc1 | % | -1.41
Cc1ccc(Nc2ccc(Nc3ccc(C)cc3S(=O)(=O)O)c3c2C(=O)c2ccccc2C3=O)c(S(=O)(=O)O)c1 | % | 116
Cc1nn(Cc2ccccc2)cc1C(=O)Nc1sc2c(c1C(N)=O)CCC(=O)C2 | % | 16.5
CC(C)CCC[C@@H](C)[C@H]1CCC2C3=CCn4c(=O)ccc(=O)n4C3CC[C@@]21C (some centres not stated) | % | -23.6
Cc1ccc(NC(=O)C(Cl)Cl)cc1 | % | 14.2
c1ccc2c(c1)nc(-n1ccnc1)c1nc3ccccc3n12 | % | 74.9
COc1ccc(N=c2nc3sc4cc(Cl)ccc4n3c(N)c2C#N)cc1 | % | 37.7
O=C(O)C1C[C@](O)(c2ccc(F)cc2)[C@@H](c2ccc(F)cc2)O1 (some centres not stated) | % | 97.2
COc1ccc(-c2nc3ccccn3c2/C=C/C(=O)c2cc(OC)c(OC)c(OC)c2)cc1 | % | 61.6
O=C(CCl)N1c2cccc3cccc(c23)N(C(=O)CCl)C1c1cn(-c2ccccc2)nc1-c1cccc([N+](=O)[O-])c1 | % | 34.7

* * *

- Tested on: MDA-MB-435 melanoma
- method-notes: NCI-60 one-dose screen, 48 h
- assay-context: 10 µM unless noted
This is part of a sample that, as a whole, favours compounds with a hit. Of some 83,000 tested, about 20% had one in any assay. Active and inactive are the calls of the source. Rule for the calls: active = growth percent below 10; inactive = the rest.
Outcomes: yes for active, no for inactive

compound | tgt | class-assignment
COc1ccc(-n2sc(=O)n(Cc3ccc(COC(=O)C(C)c4ccc(CC(C)C)cc4)cc3)c2=O)cc1 (stereo not given) | MDA-MB-435 melanoma | no
COc1ccc(-c2cncnc2N)cc1OC | MDA-MB-435 melanoma | no
NC(=O)c1c(NC(=O)c2ccccn2)sc2c1CCC(=O)C2 | MDA-MB-435 melanoma | no
O=[N+]([O-])c1ccc(-c2cc3c(Nc4ccc(Cl)c(C(F)(F)F)c4)ncnc3s2)cc1 | MDA-MB-435 melanoma | yes
CNC(=O)c1cc(Oc2ccc3nc(Nc4cc(Cl)cc(Cl)c4)ccc3c2)ccn1 | MDA-MB-435 melanoma | no
COc1ccc2cc(-c3ccc(C(=O)NN)c(C)n3)ccc2c1 | MDA-MB-435 melanoma | no
Cc1nc(Nc2ccc(N)cc2)c2ccccc2n1 | MDA-MB-435 melanoma | no
CC(C)OCCCNCC(=O)Nc1ccc(S(=O)(=O)c2ccc(NC(=O)CNCCCOC(C)C)cc2)cc1 | MDA-MB-435 melanoma | no
CCN(CC)c1ccc(Nc2ccc(CC(=O)c3ccccc3)cc2)cc1 | MDA-MB-435 melanoma | no
CCCCn1c(=O)[nH]c(N)c(C(c2ccc(F)cc2)c2c(N)[nH]c(=O)n(CCCC)c2=O)c1=O | MDA-MB-435 melanoma | no

* * *

- System: COLO 205 colon
- method-notes: NCI-60 one-dose screen, 48 h (100 = growth as untreated, 0 = no growth, -100 = all killed)
- assay-context: 10 µM unless noted
Compounds without any hit were thinned out: in the full panel of roughly 83,000, 20% have a hit.
Recorded measurements of growth, one per entry

mol | growth, %
C=C1C(=O)O[C@H]2[C@H]1CC/C(COC(=O)/C=C\C(=O)NCc1ccc(Cn3c(=O)sn(-c4ccc(Cl)cc4)c3=O)cc1)=C\CC[C@@]1(C)O[C@@H]21 | -45
C[N+](C)(C)CCOC(OCC[N+](C)(C)C)(c1ccccc1)c1ccccc1 | 116
Clc1ccc(/C=C/c2nc(Nc3ccc(Cl)cc3)c3ccccc3n2)cc1 | 112
O=C(Nc1ccccc1)c1sc(-c2cccc(C(F)(F)F)c2)cc1O | 107
CC(C)OC(=O)NNC(=O)c1ccncc1 | 110
O=C1/C(=C/c2ccccc2[N+](=O)[O-])COc2ccc(O)c(O)c21 | -32.6
COc1cc(C(=O)Nc2cc(O)c(CC=C(C)C)c(O)c2)cc2c1O[C@]1(C)CC[C@@H](O)C(C)(C)[C@H]1C2 | -11.8
COc1ccc(OC)c(Nc2nc3nonc3nc2Nc2cc(OC)ccc2OC)c1 | 93.7
Cc1nc(Nc2ccc(S(=O)(=O)Nc3cc(C)on3)cc2)c2ccccc2n1 | 116

Hello, the source for this data is PubChem BioAssay (NCI), in case you need it.
